# experimentalDetails: caspase-8 TRAIL sensitization, hit retest, confirmation, cell-based, NB7+caspase-8, with/without TRAIL, luminescence panel (AID 651596)
# testSettings: NB7 neuroblastoma + caspase-8, without TRAIL, luminescence viability, without TRAIL, mean of runs, at 10 µM
quantityName: activity (%)
Number in %, nothing else.

Worked cases, answers included:
CCOC(=O)C(=CNc1ccc(C(O)(C(=O)OCC)C(F)(F)F)cc1C)C(=O)OCC (centres undefined)    6.08
CC1=CC2OC3CC4OC(=O)C=CC=CC(C(C)O)OCC(O)C(C)CC(=O)OCC2(CC1O)C4(C)C31CO1 (centres undefined)    97.7
CC12CCC(O)CC1CCC1C2CCC2(C)C(C3=CC(=O)OC3)CCC12O (centres undefined)    91.6

Continue with the molecule presented below.
Prompt line: Dear colleague, I am looking for the recorded activity of the following molecule: C[C@]12CCC3C(CCC4=CC(O)CC[C@@]43/C=N/O)C1(O)CCC2C1=CC(=O)OC1 (some centres undefined)
Response line: 92.3
